- tgt: HLA-A*0101 (Homo sapiens, UniProt P04439, A114D/A174V/A182V/D101N/D185E/E176A/E190D/L180R/Q94H/R68K/S129P/T187R/V100A/V91M/W191G)
- protocol_text: biochemical
- Type: binding
- details: allele A*0101; fluorescence polarization competition; read-out: IC50 (nM), in vitro HLA binding affinity
Where a SMILES comes first, the peptide text is derived from it.
outcome_measure: IC50

Known results for compounds:
compound	IC50
CC(C)C[C@H](N)C(=O)N[C@H](C(=O)N1CCC[C@H]1C(=O)N[C@H](C(=O)N[C@@H](C)C(=O)N[C@H](C(=O)NCC(=O)N[C@@H](CC(N)=O)C(=O)N[C@@H](CCC(N)=O)C(=O)N[C@@H](Cc1ccc(O)cc1)C(=O)O)[C@@H](C)O)C(C)C)[C@@H](C)O [AMA1_166] (H-LTPVATGNQY-OH)	2560 nM
CC[C@H](C)[C@H](NC(=O)[C@H](CC(=O)O)NC(=O)[C@H](CC(=O)O)NC(=O)[C@H](CCCCN)NC(=O)[C@H](CCC(=O)O)NC(=O)[C@H](CCC(=O)O)NC(=O)[C@H](CCC(=O)O)NC(=O)[C@@H](NC(=O)[C@@H](N)CO)[C@@H](C)O)C(=O)N[C@@H](CCCCN)C(=O)O [RH5_46] (H-STEEEKDDIK-OH)	6830 nM

Turning to the following compound.
Could you tell me which IC50 is on file for CC[C@H](C)[C@H](N)C(=O)N1CCC[C@H]1C(=O)N[C@@H](CC(=O)O)C(=O)N[C@@H](CC(N)=O)C(=O)N[C@@H](CC(=O)O)C(=O)N[C@@H](CCCCN)C(=O)N[C@@H](CC(N)=O)C(=O)N[C@@H](CO)C(=O)N[C@@H](CC(N)=O)C(=O)N[C@@H](Cc1ccc(O)cc1)C(=O)O [AMA1_225] (H-IPDNDKNSNY-OH) ? 14700 nM
